Biological target: Brd4 bromodomain 1 (BRD4(1)) (Homo sapiens, UniProt O60885)
Assay: Inhibition of tetra-acetylated histone H4 binding to Brd4 bromodomain 1 (TR-FRET)
Settings: tetra-acetylated histone H4 peptide, first bromodomain of Brd4
pIC50: −log10 of the molar value.
// reported pIC50 per item

- STRUCTURE_AS_SMILES: "Cc1noc(C)c1-c1cnc2nc(C)n(Cc3ccc(C#N)cc3)c2c1"
  TARGET_DESC: "Brd4 bromodomain 1 (BRD4(1)) (Homo sapiens, UniProt O60885)"
  pIC50: "≥ 6.52"

Exercise: Give pIC50 only, for `Cc1noc(C)c1-c1cc(N)c2[nH]c(=O)n([C@@H](C)c3ccccc3)c2c1` , using Brd4 bromodomain 1 (BRD4(1)) (Homo sapiens, UniProt O60885) data.
Solution: ≥ 6.52

Exercise: Give pIC50 only, for `CCOc1nc2ncc(-c3c(C)noc3C)cc2n1Cc1ccccc1` , using Brd4 bromodomain 1 (BRD4(1)) (Homo sapiens, UniProt O60885) data.
Solution: 5.52 to 6.52

Exercise: Give pIC50 only, for `Cc1oncc1-c1cc(N)c2nc(C)n(Cc3ccccc3)c2c1` , using Brd4 bromodomain 1 (BRD4(1)) (Homo sapiens, UniProt O60885) data.
Solution: ≥ 6.52

Exercise: Give pIC50 only, for `Cc1noc(C)c1-c1cc(NCc2ccccc2)c2ncn(Cc3ccccc3)c2c1` , using Brd4 bromodomain 1 (BRD4(1)) (Homo sapiens, UniProt O60885) data.
Solution: 4.52 to 5.52

Exercise: Give pIC50 only, for `Cc1noc(C)c1-c1cnc2nc(C)n(Cc3ccncc3)c2c1` , using Brd4 bromodomain 1 (BRD4(1)) (Homo sapiens, UniProt O60885) data.
Solution: 5.52 to 6.52

Exercise: Give pIC50 only, for `Cc1noc(C)c1-c1cnc2nc(C3CCOCC3)n(Cc3ccccc3)c2c1` , using Brd4 bromodomain 1 (BRD4(1)) (Homo sapiens, UniProt O60885) data.
Solution: ≥ 6.52

Exercise: Give pIC50 only, for `Cc1noc(C)c1-c1cnc2nc(NCc3cnccn3)n(Cc3ccccc3)c2c1` , using Brd4 bromodomain 1 (BRD4(1)) (Homo sapiens, UniProt O60885) data.
Solution: ≥ 6.52

Exercise: Give pIC50 only, for `Cc1noc(C)c1Nc1cc(N)c2nc(C)n(Cc3ccccc3)c2c1` , using Brd4 bromodomain 1 (BRD4(1)) (Homo sapiens, UniProt O60885) data.
Solution: 5.52 to 6.52

---

// reported IC50 per item
Tested on: hIL-6 mRNA
Test: Inhibition of hIL-6 mRNA transcription in LPS-stimulated U937 cells
Type: cell-based
Conditions: Homo sapiens, U-937; PMA-differentiated U937 cells, 1 h pretreatment, 1 ug/mL LPS stimulation, 3 h; read-out: IL-6 activity (Inhibition of hIL-6 mRNA Transcription)

- STRUCTURE_AS_SMILES: "Cc1noc(C)c1-c1cc(N)c2nc(C)n(CC3CC3)c2c1"
  EXPERIMENTAL_RESULT: "300 to 3000 nM"
- STRUCTURE_AS_SMILES: "Cc1cnn(C)c1-c1cc(N)c2nc(C)n(Cc3ccccc3)c2c1"
  EXPERIMENTAL_RESULT: "300 to 3000 nM"

Alright, here's another compound for you.
Exercise: Retrieve IC50 measured for `Cc1noc(C)c1-c1cnc2[nH]c(=O)n(CC3CC3)c2c1` and print it.
Solution: 300 to 3000 nM

---

// reported pIC50 per item
Target: Brd4 bromodomain 1 (BRD4(1)) (Homo sapiens, UniProt O60885)
Assay: Inhibition of tetra-acetylated histone H4 binding to Brd4 bromodomain 1 (TR-FRET)
Settings: tetra-acetylated histone H4 peptide, first bromodomain of Brd4
pIC50: −log10 of the molar value.

Some compounds with known pIC50 results, for comparison:
- COMPOUND: "CCNc1nc2c(N)cc(-c3c(C)noc3C)cc2n1Cc1ccccc1"
  pIC50: "≥ 6.52"
- COMPOUND: "CC(=O)Nc1cc(-c2c(C)noc2C)cc2c1n(C)c(=O)n2Cc1ccccc1"
  pIC50: "≥ 6.52"
- COMPOUND: "Cc1cnn(C)c1-c1cc([N+](=O)[O-])c2nc(C)n(Cc3ccccc3)c2c1"
  pIC50: "5.52 to 6.52"
- COMPOUND: "Cc1noc(C)c1-c1cc([N+](=O)[O-])c2[nH]c(=O)n([C@@H](C)c3ccccc3)c2c1"
  pIC50: "≥ 6.52"
- COMPOUND: "Cc1noc(C)c1-c1cnc2ncn(C(C)c3ccccc3)c2c1 (centres unmarked)"
  pIC50: "≥ 6.52"

Alright, here's another compound for you.
Exercise: Retrieve pIC50 measured for `CNc1nc2c([N+](=O)[O-])cc(-c3c(C)noc3C)cc2n1Cc1ccccc1` and print it.
Solution: ≥ 6.52

---

System: hIL-6 mRNA
Experiment: Inhibition of hIL-6 mRNA transcription in LPS-stimulated U937 cells
Format: cell-based
Details: Homo sapiens, U-937; PMA-differentiated U937 cells, 1 h pretreatment, 1 ug/mL LPS stimulation, 3 h; read-out: IL-6 activity (Inhibition of hIL-6 mRNA Transcription)
pIC50: −log10 of the molar value.
// reported pIC50 per item

- COMPOUND: "Cc1noc(C)c1-c1cc(Br)c2nc(C)n(Cc3ccccc3)c2c1 [compound 121]"
  EXPERIMENTAL_RESULT: "5.52 to 6.52"
- COMPOUND: "Cc1noc(C)c1-c1cnc2c(CN(C)C)cn(Cc3ccccc3)c2c1 [compound 72]"
  EXPERIMENTAL_RESULT: "4.52 to 5.52"
- COMPOUND: "Cc1noc(C)c1-c1cc(N)c2cnn(Cc3ccccc3)c2c1 [Example Compound 54]"
  EXPERIMENTAL_RESULT: "5.52 to 6.52"
- COMPOUND: "CNc1nc2c(N)cc(-c3c(C)noc3C)cc2n1Cc1ccccc1 [compound 151]"
  EXPERIMENTAL_RESULT: "≥ 6.52"
- COMPOUND: "Cc1noc(C)c1-c1cc2c(ncn2Cc2ccccc2)c(N)n1 [Example Compound 33]"
  EXPERIMENTAL_RESULT: "5.52 to 6.52"

Exercise: Retrieve pIC50 measured for Cc1noc(C)c1-c1cc(N)c2cnn(Cc3ccc(Cl)cc3)c2c1 [compound 102] and print it.
Solution: ≥ 6.52

Exercise: Retrieve pIC50 measured for Cc1noc(C)c1-c1ccc2oc(=O)n(Cc3ccccc3)c2c1 [Example Compound 6] and print it.
Solution: 5.52 to 6.52

Exercise: Retrieve pIC50 measured for Cc1noc(C)c1-c1cc([N+](=O)[O-])c2nc(N3CCCC3)n(Cc3ccccc3)c2c1 [compound 135] and print it.
Solution: ≥ 6.52

---

// reported IC50 per item
Target: Brd4 bromodomain 1 (BRD4(1)) (Homo sapiens)
Experiment: Inhibition of tetra-acetylated histone H4 binding to Brd4 bromodomain 1 (TR-FRET)
Details: tetra-acetylated histone H4 peptide, first bromodomain of Brd4

Some compounds with known IC50 results, for comparison:
- COMPOUND: "Cc1noc(C)c1-c1cnc2c(c1)ncn2Cc1ccccc1 [Example Compound 4]"
  IC50: "300 to 3000 nM"
- COMPOUND: "Cc1noc(C)c1-c1cnc2nc(NC3CCOCC3)n(CC3CCC3)c2c1 [compound 223]"
  IC50: "≤ 300 nM"
- COMPOUND: "Cc1noc(C)c1-c1cc([N+](=O)[O-])c2[nH]c(=O)n([C@H](C)c3ccccc3)c2c1 [compound 240]"
  IC50: "≤ 300 nM"
- COMPOUND: "Cc1noc(C)c1-c1cc2c(ccn2Cc2ccccc2)nc1OC=O [Example Compound 37]"
  IC50: "300 to 3000 nM"
- COMPOUND: "Cc1noc(C)c1Cn1c(C)nc2ncc(-c3c(C)noc3C)cc21 [Example Compound 60]"
  IC50: "300 to 3000 nM"
- COMPOUND: "Cc1noc(C)c1-c1cc(N)c2[nH]c(=O)n(C(C)c3ccccc3)c2c1 (centres unmarked) [compound 115]"
  IC50: "≤ 300 nM"
- COMPOUND: "Cc1noc(C)c1-c1cnc2[nH]c(=O)n(Cc3cccs3)c2c1 [compound 106]"
  IC50: "≤ 300 nM"
- COMPOUND: "Cc1noc(C)c1-c1cnc2nc(NC3CCC(N)CC3)n(Cc3ccccc3)c2c1 (centres unmarked) [compound 224]"
  IC50: "≤ 300 nM"

Exercise: Give IC50 only, for Cc1noc(C)c1-c1cnc2nc(N3CCC3)n(CC3CCC3)c2c1 [compound 211] , using Brd4 bromodomain 1 (BRD4(1)) (Homo sapiens) data.
Solution: ≤ 300 nM

Exercise: Give IC50 only, for Cc1noc(C)c1-c1cnc2nc(C3CC3)n(Cc3ccccc3)c2c1 [compound 138] , using Brd4 bromodomain 1 (BRD4(1)) (Homo sapiens) data.
Solution: ≤ 300 nM

Exercise: Give IC50 only, for CNc1nc2c(N)cc(-c3c(C)noc3C)cc2n1Cc1ccccc1 [compound 151] , using Brd4 bromodomain 1 (BRD4(1)) (Homo sapiens) data.
Solution: ≤ 300 nM

Exercise: Give IC50 only, for Cc1noc(C)c1-c1cnc2nc(NC3CCC(O)CC3)n(Cc3ccccc3)c2c1 (centres unmarked) [compound 207] , using Brd4 bromodomain 1 (BRD4(1)) (Homo sapiens) data.
Solution: ≤ 300 nM

Exercise: Give IC50 only, for COc1cc(-c2c(C)noc2C)cc2c1nc(C)n2Cc1ccccc1 [Example Compound 66] , using Brd4 bromodomain 1 (BRD4(1)) (Homo sapiens) data.
Solution: ≤ 300 nM

Exercise: Give IC50 only, for Cc1noc(C)c1-c1cc([N+](=O)[O-])c2nc(C)n(CC3CCC3)c2c1 [compound 116] , using Brd4 bromodomain 1 (BRD4(1)) (Homo sapiens) data.
Solution: ≤ 300 nM

Exercise: Give IC50 only, for Cc1noc(C)c1-c1cnc2nc(NCc3ccncc3)n(Cc3ccccc3)c2c1 [compound 169] , using Brd4 bromodomain 1 (BRD4(1)) (Homo sapiens) data.
Solution: ≤ 300 nM

Exercise: Give IC50 only, for Cc1noc(C)c1-c1cnc2c(C=O)cn(Cc3ccccc3)c2c1 [Example Compound 35] , using Brd4 bromodomain 1 (BRD4(1)) (Homo sapiens) data.
Solution: ≤ 300 nM

Exercise: Give IC50 only, for Cc1noc(C)c1-c1cnc2c(C)nn(Cc3ccc(F)cc3)c2c1 [Example Compound 53] , using Brd4 bromodomain 1 (BRD4(1)) (Homo sapiens) data.
Solution: ≤ 300 nM

Exercise: Give IC50 only, for Cc1noc(C)c1-c1cnc2nc(C)n(Cc3ccc(O)cc3)c2c1 [compound 84] , using Brd4 bromodomain 1 (BRD4(1)) (Homo sapiens) data.
Solution: ≤ 300 nM

Exercise: Give IC50 only, for Cc1noc(C)c1-c1cc([N+](=O)[O-])c2nc(NCc3cccnc3)n(Cc3ccccc3)c2c1 [compound 148] , using Brd4 bromodomain 1 (BRD4(1)) (Homo sapiens) data.
Solution: ≤ 300 nM
